Provide the reported IC50 of each item.
System: HCT116 colon cancer cell line
Experiment: Cytotoxicity in TTK-expressed HCT116 cells
Format: cell-based
Conditions: Homo sapiens, HCT-116, 120 h, 5 days

# get_value(readout='IC50', item= COc1cc(N2CCOCC2)ccc1Nc1nc(NC2CCCCC2)c2c(-c3cnn(C)c3)n[nH]c2n1 )
500 to 1000 nM

# get_value(readout='IC50', item= COc1cc(N2CCOCC2)ccc1Nc1nc(NC2CCOCC2)c2c(-c3cnco3)n[nH]c2n1 )
< 150 nM

# get_value(readout='IC50', item= COc1cc(N2CCOCC2)ccc1Nc1nc(NCC2CCCO2)c2c(-c3cnn(C)c3)n[nH]c2n1 (stereo not drawn) )
> 1000 nM

# get_value(readout='IC50', item= Cc1cc(-c2cnn3c(NC[C@H]4C[C@@](C)(O)C4)cc(Oc4cccnc4)nc23)ccc1C(=O)NC1CC1 [Comparative Example 1, CFI-402257, reference compound] )
< 150 nM

# get_value(readout='IC50', item= COc1cc(N2CCOCC2)ccc1Nc1nc(NC2CCCCC2)c2c(-c3ccco3)n[nH]c2n1 )
150 to 500 nM

# get_value(readout='IC50', item= COc1cc(N2CCOCC2)ccc1Nc1nc(NC2CCOCC2)c2c(-c3cnoc3)n[nH]c2n1 )
500 to 1000 nM

# get_value(readout='IC50', item= COc1cc(N2CCOCC2)ccc1Nc1nc(NC2CCCCC2)c2c(-c3cccc(C(N)=O)c3)n[nH]c2n1 )
> 1000 nM

# get_value(readout='IC50', item= COc1cc(N2CCOCC2)ccc1Nc1nc(NC2CCOCC2)c2c(-c3ccn(C)n3)n[nH]c2n1 )
150 to 500 nM

# get_value(readout='IC50', item= COc1cc(-c2nncn2C)ccc1Nc1nc(NC2CCCCC2)c2c(-c3cnn(C)c3)n[nH]c2n1 )
< 150 nM
